assay: chemical genetic growth profiling, strain panel (AID 1159580);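 further: tested at 20 µM; growth read once vehicle control cultures reached saturation at 30 °C; 1 = growth at the plate median or of vehicle wells; lower values mean less growth of the strain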; conditions: S. cerevisiae deletion strains, growth OD, locus YKL160W, strain elf1
Among all 5,500 compounds or so, about 2,000 (36%) were called active. About 18% were inconclusive and are not listed. No stated cut-off is given here; in the data, active means normalized growth mostly below about 0.91 (no sharp cut-off); inconclusive means no clear call, values can overlap the other calls; inactive means mostly above about 0.92. This is one part of the list.
Respond with a class label; see yes (1) = active, no (0) = inactive

Query: Entry `C1CCc2nnnn2CC1` : call = ?
Reply: no (0)

Query: Same question, `COc1ccc2cc1Oc1ccc(cc1)C[C@H]1c3cc(c(OC)cc3CCN1C)Oc1c(OC)c(OC)cc3c1[C@H](C2)N(C)CC3` this time
Reply: no (0)

Query: Same lookup for `COc1c(O)cc2oc3cc(O)c(CC=C(C)C)c(O)c3c(=O)c2c1CC=C(C)C` , please.
Reply: no (0)

Query: Next compound up: COC(=O)C1=COC(OC2OC(CO)C(O)C(O)C2O)C2C(C)CC(=O)C12O (stereo unspecified)
Reply: no (0)

Query: Similarly, CN1CCc2cc3c(cc2C1O)OCO3 (stereo unspecified) ?
Reply: no (0)

Query: Queued: `CCOC(=O)c1ncn2c1CN(C)C(=O)c1cc(F)ccc1-2`
Reply: no (0)

Query: Lookup `COc1cc(O)c2c(=O)cc(C)oc2c1CC=C(C)C`
Reply: no (0)

Query: And what about the compound CN1C2CC3C[C@H]1C(O3)C2O (stereo partly specified) ?
Reply: no (0)

Query: And `COc1ccc(-c2cc(=O)c3c(O)cc(OC)c(OC)c3o2)c(OC)c1` ?
Reply: no (0)

Query: What would you report for `C[CH2][Hg][S]c1ccccc1C(=O)O` ?
Reply: yes (1)

Query: Also `CNc1ccccc1C(=O)N1CCc2c([nH]c3ccccc23)C1=O` ?
Reply: no (0)

Query: Query COC1C(O)C(O)C(O)[C@@H](O)C1O (stereo partly specified) next
Reply: no (0)

Query: Moving on to the next compound: `O=C(Cc1ccccc1)NO`
Reply: no (0)

Query: One more compound: `Cc1cccc(Nc2cc(Cl)nc(SCC(=O)O)n2)c1C`
Reply: no (0)

Query: Another compound to check: `COc1ccc(C(=O)c2ccccc2O)c(O)c1`
Reply: yes (1)

Query: What do we get for CCC(C(=O)O)c1ccccc1 (stereo unspecified) ?
Reply: no (0)

* * *

experiment: chemical genetic growth profiling, strain panel (AID 1159580);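 further: tested at 20 µM; growth read once vehicle control cultures reached saturation at 30 °C; 1 = growth at the plate median or of vehicle wells; lower values mean less growth of the strain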; conditions: S. cerevisiae deletion strains, growth OD, locus YPL051W, strain arl3, active compounds read low
Hit rate of the full screen: of about 5,500 compounds, about 2,000 (36%) were called active. Another 18% or so got no clear call; they are omitted. This is one part of the list.
outcome measure: normalized growth
// return just the number, without any unit appended

Query: Give the measured normalized growth of `CC(C)[N+](C)(CCOC(=O)C1c2ccccc2Oc2ccccc21)C(C)C` .
Reply: 1.02

Query: Then this molecule: CC(C(=O)O)c1ccc2c(c1)[nH]c1ccc(Cl)cc12 (configuration not stated)
Reply: 0.953

Query: Let us now turn to COC(=O)C1=COC(OC2OC(CO)C(O)C(O)C2O)C2C(C)CC(=O)C12O (configuration not stated)
Reply: 0.999

Query: Same read-out for `COc1ccc2cc1Oc1ccc(cc1)C[C@H]1c3c(cc4c(c3Oc3cc5c(cc3OC)CCN(C)[C@@H]5C2)OCO4)CCN1C` ?
Reply: 1.04

Query: Check `O=C(/C=C/C=C/c1ccc2c(c1)OCO2)N1CCCCC1` too.
Reply: 0.896

Query: Now this one: `COc1ccc(-c2cc(=O)c3c(O)cc(OC)c(OC)c3o2)c(OC)c1`
Reply: 0.916

Query: Same question, `S=C=NCc1ccccc1` this time
Reply: 0.0938

Query: Then `C=CC1=C(C(=O)O)N2C(=O)[C@@H](NC(=O)/C(=N/O)c3csc(N)n3)[C@H]2SC1` ?
Reply: 1.03

Query: Same question, `NC(=O)N1c2ccccc2CC(=O)c2ccccc21` this time
Reply: 1.04

Query: Now consider `O=c1ccc2ccccc2o1` and answer again.
Reply: 1.03

Query: `COc1cccc([C@]2(O)CCCC[C@H]2CN(C)C)c1` ?
Reply: 0.987

Query: Input `COc1cc(OC)c2c(c1)O[C@H](c1ccc(OC)c(OC)c1)[C@@H](O)C2`
Reply: 0.985
